Test: Volume of distribution in central compartment in preterm neonates with septicemia or invasive infections with gestational age of less than 32 weeks at 50000 U/kg, iv administered every 12 hrs
Assay type: ADME, organism-based
Settings: human, in vivo, read-out: Vc
outcome-measure: Vd (L)
Respond with the bare value in L.

Note to self: Vd recorded for CC1(C)S[C@@H]2[C@H](NC(=O)Cc3ccccc3)C(=O)N2[C@H]1C(=O)O [PENICILLIN G] was 0.359

====

Assay: Half life in iv dosed neonates with gestational age of 27 to 40 weeks
Assay type: ADME, organism-based
Conditions: human, in vivo
outcome-measure: half-life
Phrase the answer as number then unit, nothing more needed.

Note to self: half-life recorded for CC1(C)S[C@@H]2[C@H](NC(=O)Cc3ccccc3)C(=O)N2[C@H]1C(=O)O was 3.8 h
